# Target system: T1, monkey GPRC5D (monkey, UniProt Q9NZD1 1-343 (human entry))
# T1 construct: Full length, on stably transfected CHO-K1 cells; also called cynoGPRC5D; CHO-K1-cynoGPRC5D
# T1 chain: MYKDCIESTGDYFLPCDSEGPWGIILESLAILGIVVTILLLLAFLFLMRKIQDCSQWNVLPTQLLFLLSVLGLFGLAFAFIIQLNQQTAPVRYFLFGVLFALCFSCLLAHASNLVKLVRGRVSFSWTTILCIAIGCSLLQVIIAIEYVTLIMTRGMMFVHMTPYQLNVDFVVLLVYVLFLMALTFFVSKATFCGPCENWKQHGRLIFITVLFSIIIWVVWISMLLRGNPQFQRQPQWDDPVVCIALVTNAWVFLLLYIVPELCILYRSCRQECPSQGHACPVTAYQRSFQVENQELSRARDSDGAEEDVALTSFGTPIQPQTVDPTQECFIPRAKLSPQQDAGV
# Test summary: FACS on CHO-K1-cynoGPRC5D cells
Readout kind: binding result

Chi-128 (antibody, human IgG1, kappa, V domains shown, Human-mouse chimeric antibody, human IgG1 heavy chain constant region and Kappa light chain constant region) VH: DVQLVESGGGLVQPGGSRKVSCAASGFTFSSFGMHWVRQAPEKGLEWVAYISRGSSTIYYADTVKGRFTISRDNPKNTLFLQMTSLRSEDTAMYYCARSGYGSSSYYFDYWGQGTTLTVSS VL: ENVLTQSPAIMSASPREKVTMTCRASSSIRSSYLHWYQQKSGASPKLWIYSTSNLASGVPARFSGSGSGTSYSLTISSVEAEDAATYYCQQFSGYPLTFGGGTKLEIKR :: binds
